- Tested on: SNB-19 CNS
- Protocol Details: NCI tumour cell line growth inhibition, 48 h; in the data active = GI50 below about 0.43 µM; inactive = the rest
The reply should name one outcome from active, inactive

* CC1(C)C2CCC13C(=O)C1OC3(C2)C2C(=O)c3ccccc3C(=O)C12 (stereo not given) | inactive

For Cc1cc(NCCCN(C)C)c2ccc3c(ccc4c(NCCCN(C)C)cc(C)nc43)c2n1 , which call appears in the assay record?
active

For CCCCCCC[CH2][Sn]([CH2]CCCCCCC)([O]c1cccc2cccnc12)[O]c1cccc2cccnc12 , which call appears in the assay record?
inactive

For N#C/C(=C\c1ccsc1)c1nc2ccccc2o1 , which call appears in the assay record?
inactive

For NCCCC[C@@H]1NC(=O)[C@H]2CCCN2C(=O)[C@H](Cc2ccccc2)CNC(=O)[C@H](Cc2ccccc2)NC1=O , which call appears in the assay record?
inactive

For Cn1ncnc1[C@H]1c2n[nH]c(=O)c3cc(F)cc(c23)N[C@@H]1c1ccc(F)cc1 , which call appears in the assay record?
inactive

For COc1ccc(C/C(C)=C(/c2ccc(OCCN3CCCCC3)cc2)c2ccc(OC(=O)NCc3ccccc3)cc2)cc1 , which call appears in the assay record?
inactive

For Cc1ccccc1OCC(O)CN1CCN(c2ccc(Cl)cc2)CC1 (stereo not given) , which call appears in the assay record?
inactive

For Cc1ccc(S(=O)(=O)c2c(COC(=O)c3cccc(C)c3)c(-c3ccccc3)nn2C)cc1 , which call appears in the assay record?
inactive

For O=C(Nc1cccc(-n2cc(-c3ccncc3)c(-c3ccc(Cl)c(O)c3)n2)c1)Nc1cc(C(F)(F)F)cc(C(F)(F)F)c1 , which call appears in the assay record?
inactive

* * *

- Tested on: A498 renal
- Protocol Details: NCI tumour cell line growth inhibition, 48 h
Assay Readout: TGI

Solved entries (count: 5):
- COC(=O)C1(Cc2ccc3c(c2)CCC3)Cc2ccccc2C1O (stereo unspecified): 33.7 µM
- O=c1cnn(C2OC(CO)C(O)C2O)c(=S)[nH]1 (stereo unspecified): > 100 µM
- Cc1ccc(/C(O)=C/c2nc3ccccc3sc2=O)c(C)c1: > 100 µM
- Cc1ccc(S(=O)(=O)n2c3ccc(Br)cc3c3nc4ccccc4nc32)cc1: > 100 µM
- Cc1cccc(/C=N/NC(=S)N2CCCC2)n1: 5.61 µM

Record TGI for all entries; do not skip any.
1. COc1cc2ccnc3c2c(c1OC)-c1coc(SC)c1-3
2. O=C1Nc2ccc(Br)cc2C1=Nc1cccnc1
3. C[N+](C)(C)c1ccc(C(N)C(=O)O)cc1 (stereo unspecified)
4. CC(C)CNc1nc2ncnc(N)c2[nH]1

1: > 100 µM; 2: > 100 µM; 3: > 100 µM; 4: > 100 µM

Record TGI for all entries; do not skip any.
1. COc1c(O)c(C=O)c2c(O)c(-c3c(C)cc4c(C(C)C)c(OC)c(O)c(C=O)c4c3O)c(C)cc2c1C(C)C
2. C[C@H](OCc1ccccc1)C(=O)N1CCS(=O)(=O)N2CCC[C@@H]2C1=O

24.7 µM
> 100 µM

* * *

- Tested on: NCI-H460 lung
The reply should name one outcome from t = active, f = inactive

* CC1=C(C(=O)Nc2ccc3n[nH]c(C)c3c2)C(c2ccc(C(F)(F)F)cc2)CC(=O)N1 (stereo not drawn) | f
* Cc1[nH]c2ccccc2c1CCCO | f
* C=C1C(O)C2C(=C(CC)C13CC3)C(=O)C(C)(C)C2OC (stereo not drawn) | f
* C=Cc1cncc(C#N)c1CCc1c(C#N)cncc1C=C | f

For Cc1cc2c(cc1Cl)SC1=NN(C)C(C)N1S2(=O)=O (stereo not drawn) , which call appears in the assay record?
f

For Cn1ncnc1[C@H]1c2n[nH]c(=O)c3cc(F)cc(c23)N[C@@H]1c1ccc(F)cc1 , which call appears in the assay record?
t

For C[C@H]1CC[C@@]2(NC1)O[C@H]1C[C@H]3[C@@H]4CC[C@H]5C[C@@H](O)CC[C@]5(C)[C@H]4CC[C@]3(C)[C@H]1[C@@H]2C , which call appears in the assay record?
f

For Cc1cc([N+](=O)[O-])c(NS(=O)(=O)c2cccc(C(=O)O)c2)cc1-c1cccnc1 , which call appears in the assay record?
f

For O=C(/C=C/Sc1cc(C(F)(F)F)cc(C(F)(F)F)c1)c1ccc(Cl)cc1 , which call appears in the assay record?
f

For CC1(C)C2CCC13C(=O)C1OC3(C2)C2C(=O)c3ccccc3C(=O)C12 (stereo not drawn) , which call appears in the assay record?
f

For Cc1cc(C)nc(SC2=C(Nc3ccc(C)c(Cl)c3)C(=O)N(Cc3ccccc3)C2=O)n1 , which call appears in the assay record?
f

For CSC1=C(N)C(=O)c2[nH]cc(CO)c2C1=N , which call appears in the assay record?
t

For Cc1cc(NCCCN(C)C)c2ccc3c(ccc4c(NCCCN(C)C)cc(C)nc43)c2n1 , which call appears in the assay record?
t

* * *

- Tested on: CCRF-CEM leukemia
- Protocol Details: NCI tumour cell line growth inhibition, 48 h
Assay Readout: TGI (µM)
One number for each entry, in µM.

Record TGI for all entries; do not skip any.
1. Cc1cccc(/C=N/NC(=S)N2CCCC2)n1
2. O=C(Nc1cccc(-n2cc(-c3ccncc3)c(-c3ccc(Cl)c(O)c3)n2)c1)Nc1cc(C(F)(F)F)cc(C(F)(F)F)c1

[0.85, 6.78]

* * *

- Test system: HCT-15 colon
- Protocol Details: NCI tumour cell line growth inhibition, 48 h
Exercise: for every item that follows, state its recorded TGI.

Record TGI for all entries; do not skip any.
1. CN(C)c1nc(N)nc(CS)n1
2. COC(C(=O)NN)c1ccccc1 (stereo not drawn)
3. COc1cccc(CCN2CCN(CCCc3ccccc3)CC2)c1

1. > 100 µM
2. > 100 µM
3. > 100 µM

* * *

- Tested on: HOP-92 NSCLC
- Protocol Details: NCI tumour cell line growth inhibition, 48 h; in the data active = GI50 below about 0.43 µM; inactive = the rest
The reply should name one outcome from label 1 = active, label 0 = inactive

Reference set, count: 5
* COC1CC(O[C@H]2CC[C@@]3(C)[C@H](CC[C@@H]4[C@@H]3CC[C@]3(C)[C@@H](C5=CC(=O)OC5)[C@@H](OC(C)=O)C[C@]43O)C2)OC(C)C1O (stereo partly drawn) | label 1
* Cc1cc(NCCCN(C)C)c2ccc3c(ccc4c(NCCCN(C)C)cc(C)nc43)c2n1 | label 1
* Cc1cc(F)ccc1S(=O)(=O)Nc1cc(-c2c(O)ccc3ccccc23)c(O)c2ccccc12 | label 1
* CC1=C(c2cccc(O)c2)[C@H](c2ccc(OCCN3CC(CF)C3)cc2)Oc2ccc(O)cc21 | label 0
* O=C1C(Nc2ccc(Cl)cc2)=C(I)C(=O)c2ncccc21 | label 0

For O=C(Nc1cccc(-n2cc(-c3ccncc3)c(-c3ccc(Cl)c(O)c3)n2)c1)Nc1cc(C(F)(F)F)cc(C(F)(F)F)c1 , which call appears in the assay record?
label 1

For COc1ccc2c(c1)NC1=C(C(=O)OC1)C2c1cc(OC)c2c(c1)OCO2 (stereo not drawn) , which call appears in the assay record?
label 0

For Cc1c(C(=O)Nc2ccccc2)sc2ncn(Cc3cccc(Cl)c3)c(=O)c12 , which call appears in the assay record?
label 0

* * *

- System: 786-0 renal
- Protocol Details: NCI tumour cell line growth inhibition, 48 h; in the data active = GI50 below about 0.43 µM; inactive = the rest
The reply should name one outcome from y = active, n = inactive

Reference set, count: 6
- Cc1ccc(S(=O)(=O)c2c(COC(=O)c3cccc(C)c3)c(-c3ccccc3)nn2C)cc1: n
- Cc1c(Cl)cccc1C(=O)Nc1nc2c(s1)CN(C(=O)c1ccc(C(F)(F)F)cc1)CC2: y
- O=C1OCC2=C1C(c1cccc(Cl)c1)c1cc3c(cc1N2CCO)OCCO3 (configuration not stated): y
- C[C@@]12CCC(=O)c3coc(c31)C(=O)c1cc3c(cc12)C(=O)C=CC3=O: n
- CN(C)CCN1C(=O)c2c(c3c4ccccc4n4c3c3c2c2ccccc2n3C2CC(O)C(O)C4(C)O2)C1=O (configuration not stated): n
- N#C/C(=C\c1ccsc1)c1nc2ccccc2o1: n

Moving on to another compound below.
For C=CCN=C(N/N=C/c1ccc([N+](=O)[O-])o1)NS(=O)(=O)c1cc(C(=O)Nc2ccc(Cl)cc2)c(Cl)cc1SC , which call appears in the assay record?
n

* * *

- Test system: OVCAR-5 ovarian
- Protocol Details: NCI tumour cell line growth inhibition, 48 h
Exercise: for every item that follows, state its recorded GI50.

Solved entries (count: 8):
- Cn1ncnc1[C@H]1c2n[nH]c(=O)c3cc(F)cc(c23)N[C@@H]1c1ccc(F)cc1: > 100 µM
- COc1ccc(C/C(C)=C(/c2ccc(OCCN3CCCCC3)cc2)c2ccc(OC(=O)NCc3ccccc3)cc2)cc1: 0.415 µM
- COC1CC(O[C@H]2CC[C@@]3(C)[C@H](CC[C@@H]4[C@@H]3CC[C@]3(C)[C@@H](C5=CC(=O)OC5)[C@@H](OC(C)=O)C[C@]43O)C2)OC(C)C1O (stereo partly specified): < 0.01 µM
- COc1cc(C(=O)c2c(-c3ccccc3)oc3c(OC)cccc23)cc(OC)c1OC: 0.158 µM
- C=C1C(O)C2C(=C(CC)C13CC3)C(=O)C(C)(C)C2OC (stereo unspecified): > 100 µM
- Cc1ccc(S(=O)(=O)c2c(COC(=O)c3cccc(C)c3)c(-c3ccccc3)nn2C)cc1: > 100 µM
- CC1=C(C(=O)Nc2ccc3n[nH]c(C)c3c2)C(c2ccc(C(F)(F)F)cc2)CC(=O)N1 (stereo unspecified): 16.2 µM
- CC1=C(c2cccc(O)c2)[C@H](c2ccc(OCCN3CC(CF)C3)cc2)Oc2ccc(O)cc21: 12.4 µM

Record GI50 for all entries; do not skip any.
1. N#C/C(=C\c1ccsc1)c1nc2ccccc2o1
2. C=CCN=C(N/N=C/c1ccc([N+](=O)[O-])o1)NS(=O)(=O)c1cc(C(=O)Nc2ccc(Cl)cc2)c(Cl)cc1SC
3. CN(C)CCN1C(=O)c2c(c3c4ccccc4n4c3c3c2c2ccccc2n3C2CC(O)C(O)C4(C)O2)C1=O (stereo unspecified)
4. C[C@@]12CCC(=O)c3coc(c31)C(=O)c1cc3c(cc12)C(=O)C=CC3=O
5. CN1CCN(C(=O)C(C)(C)c2ccc(C(=O)Nc3cn4cc(-c5ccncc5)ccc4n3)cc2)CC1
6. NCCCC[C@@H]1NC(=O)[C@H]2CCCN2C(=O)[C@H](Cc2ccccc2)CNC(=O)[C@H](Cc2ccccc2)NC1=O
7. CCCCCCC[CH2][Sn]([CH2]CCCCCCC)([O]c1cccc2cccnc12)[O]c1cccc2cccnc12
8. O=C1OCC2=C1C(c1cccc(Cl)c1)c1cc3c(cc1N2CCO)OCCO3 (stereo unspecified)

> 100 µM
14.1 µM
4.43 µM
> 1 µM
0.405 µM
> 37.5 µM
3.02 µM
0.539 µM
